system: MDA-MB-435; test: NCI tumour cell line growth inhibition, 48 h
Could you please report measured TGI for the items listed next?

O=c1[nH]n(Cc2ccccc2Cl)c2ccc([N+](=O)[O-])cc12
> 100 µM
NOCC(=O)O
> 100 µM
CCN(CC)CCC(=O)NC1c2ccc(Cl)cc2Oc2c(C)cccc21 (stereo not given)
28.3 µM
O=C(O)c1ccc(P(=O)(O)c2ccc(C(=O)O)cc2Br)c(Br)c1
> 100 µM

Moving on to the next compound.
Under MDA-MB-435: TGI value of CCC1(CC)C(=O)OC(=O)C1(CC)CC ?
> 100 µM

====

For each entry below, report its GI50 value.
system: EKVX NSCLC; test: NCI tumour cell line growth inhibition, 48 h

Use the examples below as a reference point.
COc1cc(OC)cc(C2CC(=O)Nc3c2c(C)nn3-c2nc3ccccc3[nH]2)c1 (configuration not stated)
3.31 µM
CC(C)=CCCC(C)c1ccc(C)c2c1OCN(CC1CCNCC1)C2 (configuration not stated)
20.7 µM
COC(=O)c1cc2c(cc1Cl)SC(N(N(C)C)S(=O)(=O)c1ccc(Br)s1)=NS2(=O)=O
25.3 µM
COc1cc(OC)c(/C=C/S(=O)(=O)Cc2cnc(OC)c(N)c2)c(OC)c1
0.223 µM
COc1cc(C(=O)/C(C)=C/c2c[nH]c3ccccc23)cc(OC)c1OC
0.0053 µM

List GI50 for every entry below, keeping the order given.
1. CSc1ccc(C2=NN(C(=O)c3ccc(F)cc3)C(c3ccc(F)cc3)C2)cc1 (configuration not stated)
2. O=C(O[C@H]1CN[C@H](C#Cc2cc3ncnc(Nc4ccc5c(ccn5Cc5cc(F)ccc5F)c4)c3s2)C1)N1CCOCC1
3. O=c1c2c(nc3n1CCS3)[nH]c1ccccc12

1: 18.9 µM; 2: 0.119 µM; 3: > 100 µM

====

tested on: RPMI-8226 leukemia; test: NCI tumour cell line growth inhibition, 48 h
Please go through the items and note down their GI50.

ClCc1cccc(Cn2cnc3c(NC45CC6CC(CC(C6)C4)C5)ncnc32)c1
10.8 µM
C=CCC(N[C@H](CO)c1ccccc1)c1ccc2ccccc2n1 (some centres undefined)
> 100 µM
COc1cc(Nc2nccc(Nc3ccc4c(C)[nH]nc4c3)n2)cc(OC)c1OC
5.21 µM

Below: the item to evaluate.
Short answer please: GI50, RPMI-8226 leukemia, entry COc1cc(OC)cc(C2CC(=O)Nc3c2c(C)nn3-c2nc3ccccc3[nH]2)c1 (centres undefined)
2.64 µM

====

tested on: MDA-MB-231 breast; assay: NCI tumour cell line growth inhibition, 48 h
measurementKind: GI50

O=S(=O)(NC1=NCCN1C(=S)SN1CCn2c1nsc2=S)c1ccc(Br)cc1
28.8 µM
COC(=O)c1cc2c(cc1Cl)SC(N(N(C)C)S(=O)(=O)c1ccc(Br)s1)=NS2(=O)=O
20.3 µM

Attention now shifts to the item below.
I would be grateful if you could share the reported GI50 for CC[C@H](NC(=O)[C@H](C)NC)C(=O)N1C[C@@H](O)C[C@H]1Cc1c(-c2[nH]c3cc(F)ccc3c2C[C@@H]2C[C@H](O)CN2C(=O)[C@H](CC)NC(=O)[C@H](C)NC)[nH]c2cc(F)ccc12 .
0.0349 µM

====

tested on: SK-OV-3 ovarian; experiment: NCI tumour cell line growth inhibition, 48 h
Where a SMILES comes first, the peptide text is derived from it. [ ]: non-standard residue; d: D form. Ac5c = NC1(C(=O)O)CCCC1
measurementKind: TGI

COc1ccc(Nc2nnc(CCCCCCCCc3nnc(Nc4ccc(OC)cc4)o3)o2)cc1
> 100 µM
NC1(C(=O)NC2(C(=O)O)CCCC2)CCCC1 (H-[Ac5c]-[Ac5c]-OH)
> 100 µM

Read the next record carefully.
Provide value of TGI for this record tested with SK-OV-3 ovarian: CCNC(=O)CCN(C(=O)O)S(=O)(=O)c1ccc(NC(=O)c2ccccc2)cc1
> 100 µM

Source of measurements: PubChem BioAssay (NCI)
